# measurement target: Myo3, P36006
# protocol: SPOT array
# condition description: median of control spots 468
The following binders are listed with their measured SPOT intensity values.
measurement name: SPOT intensity

binder	measurement name	assay result
QRIRKIPGIPLMSVG	SPOT intensity	28
YLTRPLPSTPNEDSR	SPOT intensity	0
DRIRMFIRFPKFLLE	SPOT intensity	18
KDKKTKPTPPPKPSH	SPOT intensity	0
KRKRFNLLLPKPYLT	SPOT intensity	0
VYTRTAFQIPGDDKI	SPOT intensity	0
KTRLRPAFIQQLWSS	SPOT intensity	0
